# SYSTEM NAME: UniProt P10632
# Sequence (P10632 whole entry): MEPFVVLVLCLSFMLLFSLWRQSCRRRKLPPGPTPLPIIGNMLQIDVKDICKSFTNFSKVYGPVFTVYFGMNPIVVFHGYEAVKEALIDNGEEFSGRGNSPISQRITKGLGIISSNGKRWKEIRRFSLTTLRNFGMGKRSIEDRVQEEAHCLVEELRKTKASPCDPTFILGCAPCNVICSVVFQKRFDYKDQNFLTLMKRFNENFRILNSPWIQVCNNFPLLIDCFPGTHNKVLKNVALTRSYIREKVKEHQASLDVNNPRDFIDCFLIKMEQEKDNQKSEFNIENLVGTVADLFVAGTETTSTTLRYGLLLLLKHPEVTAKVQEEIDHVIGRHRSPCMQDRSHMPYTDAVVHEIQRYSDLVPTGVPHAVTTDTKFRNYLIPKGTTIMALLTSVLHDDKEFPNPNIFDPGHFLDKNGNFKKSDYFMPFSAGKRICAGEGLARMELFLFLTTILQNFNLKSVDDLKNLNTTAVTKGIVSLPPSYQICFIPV
EXPERIMENTAL READOUT: IC50

Entry under review: COC[C@@H](NC(=O)C1CCCC(F)(F)C1)C(=O)N[C@H](Cc1ccccc1)C(=O)C(=O)NCc1nccs1 (stereo partly shown) . Reported IC50?
> 30 µM

----------
# RUN DESCRIPTION: in vivo
# ASSAY CONTEXT: male, cynomolgus monkey, iv, 1 mg/kg
EXPERIMENTAL READOUT: Tmax (min)
Give the quantity in min, number only.

Entry under review: COC[C@@H](NC(=O)C1CCCC(F)(F)C1)C(=O)N[C@H](Cc1ccccc1)C(=O)C(=O)NCc1nccs1 (stereo partly shown) [SY110] . Reported Tmax?
4.8

----------
# RUN DESCRIPTION: in vivo
# ASSAY CONTEXT: male, Sprague-Dawley, rat, iv, 1 mg/kg
EXPERIMENTAL READOUT: Cmax (ng/mL)
Give the quantity in ng/mL, number only.

Entry under review: COC[C@@H](NC(=O)CC1CC(F)(F)C1)C(=O)N[C@H](Cc1ccccc1)C(=O)C(=O)NCc1nccs1 [3x] . Reported Cmax?
1350

Entry under review: COC[C@@H](NC(=O)C1CCC(F)(F)CC1)C(=O)N[C@H](Cc1ccccc1)C(=O)C(=O)NCc1nccs1 [3v] . Reported Cmax?
1700

Entry under review: C[C@@H](NC(=O)C1CCC(F)(F)CC1)C(=O)N[C@H](Cc1ccccc1)C(=O)C(=O)NCc1nccs1 [3r] . Reported Cmax?
1110

Entry under review: COC[C@@H](NC(=O)C1CCCC(F)(F)C1)C(=O)N[C@H](Cc1ccccc1)C(=O)C(=O)NCc1nccs1 (stereo partly drawn) [SY110] . Reported Cmax?
1740

Entry under review: C[C@@H](NC(=O)CC1CC(F)(F)C1)C(=O)N[C@H](Cc1ccccc1)C(=O)C(=O)NCc1nccs1 [3u] . Reported Cmax?
1570

Entry under review: C[C@@H](NC(=O)C1CCC(F)(F)C1)C(=O)N[C@H](Cc1ccccc1)C(=O)C(=O)NCc1nccs1 (stereo partly drawn) [3t] . Reported Cmax?
1320

----------
# RUN DESCRIPTION: in vivo
# ASSAY CONTEXT: male, Sprague-Dawley, rat, iv, 1 mg/kg
Label 1 for high-side clearance (at or above 8 mL/min/kg) and -1 for low-side clearance (below it).

Determine whether measured clearance meets or exceeds 8 mL/min/kg for C[C@@H](NC(=O)C1CCC(F)(F)CC1)C(=O)N[C@H](Cc1ccccc1)C(=O)C(=O)NCc1nccs1
1

Determine whether measured clearance meets or exceeds 8 mL/min/kg for COC[C@@H](NC(=O)CC1CC(F)(F)C1)C(=O)N[C@H](Cc1ccccc1)C(=O)C(=O)NCc1nccs1
-1

Determine whether measured clearance meets or exceeds 8 mL/min/kg for C[C@@H](NC(=O)C1CCC(F)(F)C1)C(=O)N[C@H](Cc1ccccc1)C(=O)C(=O)NCc1nccs1 (stereo partly drawn)
1

Determine whether measured clearance meets or exceeds 8 mL/min/kg for COC[C@@H](NC(=O)C1CCC(F)(F)CC1)C(=O)N[C@H](Cc1ccccc1)C(=O)C(=O)NCc1nccs1
-1

Determine whether measured clearance meets or exceeds 8 mL/min/kg for COC[C@@H](NC(=O)C1CCCC(F)(F)C1)C(=O)N[C@H](Cc1ccccc1)C(=O)C(=O)NCc1nccs1 (stereo partly drawn)
-1

----------
I'd be grateful if you could share measured MTRlast for these entries.
# ASSAY CONTEXT: SD rats, i.v. (1 mg/kg)

Entry under review: C[C@@H](NC(=O)C1CCC(F)(F)C1)C(=O)N[C@H](Cc1ccccc1)C(=O)C(=O)NCc1nccs1 (stereo partly drawn) . Reported MTRlast?
1.26 ± 0.42 h

Entry under review: COC[C@@H](NC(=O)C1CCC(F)(F)CC1)C(=O)N[C@H](Cc1ccccc1)C(=O)C(=O)NCc1nccs1 . Reported MTRlast?
3.55 ± 0.52 h

Entry under review: COC[C@@H](NC(=O)C1CCCC(F)(F)C1)C(=O)N[C@H](Cc1ccccc1)C(=O)C(=O)NCc1nccs1 (stereo partly drawn) . Reported MTRlast?
2.34 ± 0.22 h

Entry under review: C[C@@H](NC(=O)CC1CC(F)(F)C1)C(=O)N[C@H](Cc1ccccc1)C(=O)C(=O)NCc1nccs1 . Reported MTRlast?
3.19 ± 0.31 h

Entry under review: C[C@@H](NC(=O)C1CCC(F)(F)CC1)C(=O)N[C@H](Cc1ccccc1)C(=O)C(=O)NCc1nccs1 . Reported MTRlast?
1.31 ± 0.54 h

Entry under review: COC[C@@H](NC(=O)CC1CC(F)(F)C1)C(=O)N[C@H](Cc1ccccc1)C(=O)C(=O)NCc1nccs1 . Reported MTRlast?
3.18 ± 0.53 h

----------
I'd be grateful if you could share measured half-life for these entries.
# RUN DESCRIPTION: in vivo
# ASSAY CONTEXT: male, Sprague-Dawley, rat, po, 10 mg/kg
Give the quantity in h, number only.

Entry under review: COC[C@@H](NC(=O)C1CCCC(F)(F)C1)C(=O)N[C@H](Cc1ccccc1)C(=O)C(=O)NCc1nccs1 (stereo partly drawn) [SY110] . Reported half-life?
5.16

Entry under review: COC[C@@H](NC(=O)C1CCC(F)(F)CC1)C(=O)N[C@H](Cc1ccccc1)C(=O)C(=O)NCc1nccs1 [3v] . Reported half-life?
6.64

Entry under review: COC[C@@H](NC(=O)CC1CC(F)(F)C1)C(=O)N[C@H](Cc1ccccc1)C(=O)C(=O)NCc1nccs1 [3x] . Reported half-life?
4.67

Entry under review: C[C@@H](NC(=O)C1CCC(F)(F)C1)C(=O)N[C@H](Cc1ccccc1)C(=O)C(=O)NCc1nccs1 (stereo partly drawn) [3t] . Reported half-life?
4.15

Entry under review: C[C@@H](NC(=O)C1CCC(F)(F)CC1)C(=O)N[C@H](Cc1ccccc1)C(=O)C(=O)NCc1nccs1 [3r] . Reported half-life?
3.01

Entry under review: C[C@@H](NC(=O)CC1CC(F)(F)C1)C(=O)N[C@H](Cc1ccccc1)C(=O)C(=O)NCc1nccs1 [3u] . Reported half-life?
5.84

----------
I'd be grateful if you could share measured Vzobs for these entries.
# ASSAY CONTEXT: SD rats, i.v. (1 mg/kg)
Param answer (str): number followed by unit.

Entry under review: COC[C@@H](NC(=O)CC1CC(F)(F)C1)C(=O)N[C@H](Cc1ccccc1)C(=O)C(=O)NCc1nccs1 [3x] . Reported Vzobs?
3.28 ± 1.17 L/kg

Entry under review: C[C@@H](NC(=O)CC1CC(F)(F)C1)C(=O)N[C@H](Cc1ccccc1)C(=O)C(=O)NCc1nccs1 [3u] . Reported Vzobs?
3.65 ± 0.74 L/kg

Entry under review: C[C@@H](NC(=O)C1CCC(F)(F)CC1)C(=O)N[C@H](Cc1ccccc1)C(=O)C(=O)NCc1nccs1 [3r] . Reported Vzobs?
3.05 ± 2.08 L/kg

Entry under review: COC[C@@H](NC(=O)C1CCC(F)(F)CC1)C(=O)N[C@H](Cc1ccccc1)C(=O)C(=O)NCc1nccs1 [3v] . Reported Vzobs?
5.25 ± 2.13 L/kg

Entry under review: C[C@@H](NC(=O)C1CCC(F)(F)C1)C(=O)N[C@H](Cc1ccccc1)C(=O)C(=O)NCc1nccs1 (stereo partly drawn) [3t] . Reported Vzobs?
2.49 ± 1.61 L/kg

Entry under review: COC[C@@H](NC(=O)C1CCCC(F)(F)C1)C(=O)N[C@H](Cc1ccccc1)C(=O)C(=O)NCc1nccs1 (stereo partly drawn) [SY110] . Reported Vzobs?
3.03 ± 0.71 L/kg

----------
# RUN DESCRIPTION: in vitro
# Type: in vitro ADME
# ASSAY CONTEXT: human, microsomes; HLM 0.5 mg/mL, 1 μM; scaling factor 1254.2
// bucketize CLint scaled: lowest (below 50 mL/min/kg), middle (50 mL/min/kg to below 70 mL/min/kg), highest (70 mL/min/kg or more)

Category of C[C@@H](NC(=O)C1CCC(F)(F)C1)C(=O)N[C@H](Cc1ccccc1)C(=O)C(=O)NCc1nccs1 (stereo partly drawn) [3t] , please.
lowest

Category of COC[C@@H](NC(=O)C1CCC(F)(F)CC1)C(=O)N[C@H](Cc1ccccc1)C(=O)C(=O)NCc1nccs1 [3v] , please.
lowest

Category of COC[C@@H](NC(=O)CC1CC(F)(F)C1)C(=O)N[C@H](Cc1ccccc1)C(=O)C(=O)NCc1nccs1 [3x] , please.
middle

Category of O=C(c1ccc(F)cc1)C1CCN(CCn2c(=O)[nH]c3ccccc3c2=O)CC1 [Ketanserin, reference compound] , please.
highest

----------
# RUN DESCRIPTION: in vivo
# ASSAY CONTEXT: male, Sprague-Dawley, rat, iv, 1 mg/kg
I'd be grateful if you could share measured half-life for these entries.
Param answer (str): number followed by unit.

Entry under review: COC[C@@H](NC(=O)C1CCCC(F)(F)C1)C(=O)N[C@H](Cc1ccccc1)C(=O)C(=O)NCc1nccs1 (stereo partly drawn) . Reported half-life?
4.67 h

Entry under review: C[C@@H](NC(=O)C1CCC(F)(F)CC1)C(=O)N[C@H](Cc1ccccc1)C(=O)C(=O)NCc1nccs1 . Reported half-life?
2.41 h

Entry under review: COC[C@@H](NC(=O)CC1CC(F)(F)C1)C(=O)N[C@H](Cc1ccccc1)C(=O)C(=O)NCc1nccs1 . Reported half-life?
5.09 h

Entry under review: C[C@@H](NC(=O)C1CCC(F)(F)C1)C(=O)N[C@H](Cc1ccccc1)C(=O)C(=O)NCc1nccs1 (stereo partly drawn) . Reported half-life?
1.9 h

Entry under review: C[C@@H](NC(=O)CC1CC(F)(F)C1)C(=O)N[C@H](Cc1ccccc1)C(=O)C(=O)NCc1nccs1 . Reported half-life?
5.47 h

Entry under review: COC[C@@H](NC(=O)C1CCC(F)(F)CC1)C(=O)N[C@H](Cc1ccccc1)C(=O)C(=O)NCc1nccs1 . Reported half-life?
9.49 h
